Tested on: 786-0 (Kidney Carcinoma)
assay-details: combination Emax (second highest fraction inhibited in the dose matrix, 72 h); higher = more inhibition; extreme values may be limits of the assay
assay-readout: combination Emax
// no unit, no text: just the number

{"columns": ["compound", "combination Emax"],
 "data": [
  ["Cc1c2c(nn1C)CSCc1cc(n(C)n1)CSc1cc(c3ccccc3c1)OCCCc1c(C(=O)O)n(C)c3c-2c(Cl)ccc13 [AZD5991] + C1CN(CCC1(C(=O)N[C@@H](CCO)C2=CC=C(C=C2)Cl)N)C3=NC=NC4=C3C=CN4 [Capivasertib] (first compound max 1 µM, 7x7, partner max 3 µM)", 0.44],
  ["Cc1cc2ncnn2cc1Nc1ncc2c(n1)n(C1CCOCC1)c(=O)n2C [AZD7648] + CN(C)CCCOc1ccc(-c2ccc3ncc4c(c3c2)n(C2CCOCC2)c(=O)n4C)cn1 [AZD0156] (first compound max 10 µM, 7x7, partner max 1 µM)", 0.18],
  ["COc1nnc2ccc(N3CCC(c4ccc(OCCN5CCN(C)C(=O)[C@H]5C)cc4)CC3)nn12 [AZD5153] + CN(CC[C@H](CSC1=CC=CC=C1)NC2=C(C=C(C=C2)S(=O)(=O)NC(=O)C3=CC=C(C=C3)N4CCC(CC4)[C@H](C5=CC=CC=C5C6=CC=C(C=C6)Cl)O)S(=O)(=O)C(F)(F)F)CCO [AZD4320] (first compound max 1 µM, 7x7, partner max 1 µM)", 0.557]
]}

# input for lookup
Requested field: combination Emax. Item: NC1(C(=O)N[C@@H](CCO)c2ccc(Cl)cc2)CCN(c2ncnc3[nH]ccc23)CC1 [Capivasertib] + CC(=O)c1c(C)c2cnc(Nc3ccc(N4CCNCC4)cn3)nc2n(C2CCCC2)c1=O [Palbociclib] (first compound max 10 µM, 7x7, partner max 10 µM) 0.681

Entry source: the supplement of paper PMC11061612
